Each recorded value in this set is attributed to PubChem BioAssay AID652257.

tested.system: Protein arginine N-methyltransferase 1 (Homo sapiens)
procedure.summary: human PRMT1 activity-probe blockers – biochemical, fluorescence polarization, primary screen (AID 652257)
condition.context: recombinant PRMT1, activity-based probe fluorescence polarization; at 2.79 µM
Screen size: about 370,000 compounds; about 4,800 (1.3%) were called active.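 How the source made its calls: active means inhibition above about 21% made by adding two undisclosed values (limit read from the data); inactive means the rest.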 This excerpt belongs to a sample that is enriched for actives.
// allowed return values: active, inactive

Record excerpt, results attached:
- compound: "CCOC(=O)c1ccn(-c2nc(-c3ccco3)cc(C(F)(F)F)n2)n1"
  group: "inactive"
- compound: "COc1ccc(C2CC(c3cccs3)=NN2c2nc(C)c(C(C)=O)s2)cc1OC (stereo not drawn)"
  group: "inactive"
- compound: "O=C(CSc1nnc(-c2ccccn2)n1-c1ccc(Cl)cc1)Nc1ccccc1-c1ccccc1"
  group: "inactive"
- compound: "CC(=O)N1C(=O)/C(=C2\\SC(=S)N(NC(=O)c3ccc(O)cc3)C2=O)c2ccccc21"
  group: "active"

What classification did CCOC(=O)C1(Cc2ccc(Cl)cc2)CCN(C(=O)C2=NNC(=O)CC2)CC1 end up with in this test? inactive

What classification did Cc1ccc(/C=C(\C#N)C(=O)Nc2cccc3ncccc23)o1 end up with in this test? active

What classification did COc1cc2c(=O)n(C)c3ccccc3c2cc1OC end up with in this test? inactive

What classification did O=C1C=CC(=O)N1c1ccc(N2CCCCC2)cc1 end up with in this test? active

What classification did COc1ccc(C(=O)Nc2c(Cl)cc(Cl)cc2C(=O)N2CCC(C)CC2)cc1 end up with in this test? inactive

====

Below, each of the compounds is paired with its reported inhibition value.
tested.system: Protein arginine N-methyltransferase 1 (Homo sapiens)
procedure.summary: human PRMT1 activity-probe blockers – biochemical, fluorescence polarization, primary screen (AID 652257)
condition.context: recombinant PRMT1, activity-based probe fluorescence polarization; at 2.79 µM; active compounds read high
About 4,800 (1.3%) of roughly 370,000 compounds were called active. The entries come from a sample that favours actives as a whole.
Number in %, nothing else.

Worked set:
- compound: "CN(CCO)c1cccc2c1S(=O)(=O)N(Cc1cn(Cc3ccc(C(F)(F)F)cc3)nn1)Cc1ccccc1O2"
  inhibition, %: 4.68
- compound: "Cc1cccc2cc3c(N)c(C(=O)N4CCCc5ccccc54)sc3nc12"
  inhibition, %: 38
- compound: "COc1ccc(CCN2C(=O)CC(N3CCC(C(N)=O)CC3)C2=O)cc1OC (stereo not given)"
  inhibition, %: 39.3
- compound: "CCOC(=O)c1ccc(N2C(=O)CC(N(C)Cc3ccccc3)C2=O)cc1 (stereo not given)"
  inhibition, %: 1.83
- compound: "COc1cccc(N2C(=O)CC(N3CCN(S(=O)(=O)c4ccccc4)CC3)C2=O)c1 (stereo not given)"
  inhibition, %: 4.31
- compound: "COc1ccc(CN2C(=O)CC(Cc3ccc(C)cc3)C2=O)cc1OC (stereo not given)"
  inhibition, %: 2.37
- compound: "CCOC(=O)c1ccc(N2C(=O)CC(N3CCN(C(=O)c4ccccc4)CC3)C2=O)cc1 (stereo not given)"
  inhibition, %: -1.22
- compound: "COCC1CCN(C(=O)c2ccc3oc(Cc4ccccc4)nc3c2)C1 (stereo not given)"
  inhibition, %: -0.25
- compound: "COc1cccc2c1OCC(CN1CCN(C3CCCCC3)C(CCO)C1)=C2 (stereo not given)"
  inhibition, %: -3.92

Could you now look at the following compound, please?
Looking for the measured inhibition of Cc1cc(C)c(NC(=O)CN2CCOCCOCCOCCOCC2)c(C)c1 , can you help? -1.78
